Test system: MCF7
Test: NCI tumour cell line growth inhibition, 48 h
Activity calls are given as the source filed them. Rule as the data show it: active = GI50 up to about 1.1 µM and inactive = higher.
Choose one outcome from this list and give only that: active, inactive

Recorded results for 6 compounds are shown here.
O=C(CP(=O)(c1ccccc1)c1ccccc1)c1cccc(C(=O)CP(=O)(c2ccccc2)c2ccccc2)c1    inactive
C=C1C(=O)O[C@@H]2[C@H](O)[C@@H](C)[C@@H]3C=CC(=O)[C@@]3(C)[C@H](OC(=O)C=C(C)C)[C@H]12    active
COC(=O)C1=C(C(=O)Nc2cccnc2Cl)N(c2ccc(OC)cc2[N+](=O)[O-])C(c2ccc(C)cc2)=CC1c1ccc(OC)cc1OC (stereo not drawn)    inactive
O=S(=O)(N=S(c1ccccc1)c1ccccc1)c1ccccc1    inactive
C=C1C(=O)OC2CCN3CC=C(COC(=O)C(C)(O)C4(CO4)C1C)C23 (stereo not drawn)    inactive
O=C(O)c1cc2c(cc1S(=O)(=O)O)C1C(C3C2C2(Cl)C(Cl)=C(Cl)C3(Cl)C2(Cl)Cl)C2(Cl)C(Cl)=C(Cl)C1(Cl)C2(Cl)Cl (stereo not drawn)    inactive

Q. // outcome(item) with item = CCCCCCCCCCCCCCCCCCNc1ccn(C2OC(COP(=O)(O)OCC3OC(n4cc(F)c(NCCCCCCCCCCCCCCCCCC)nc4=O)CC3O)C(O)C2O)c(=O)n1 (stereo not drawn)
A. inactive

Q. // outcome(item) with item = "COc1cc2c(cc1OCCCOc1cc3c(cc1OC)C(=O)N1CCC[C@H]1CN3)N=C[C@@H]1CCCN1C2=O"
A. active

Q. // outcome(item) with item = "CC(C)(C)N/N=C(\C(=O)Nc1ccc([N+](=O)[O-])cc1[N+](=O)[O-])c1nc2ccc([N+](=O)[O-])cc2nc1O"
A. inactive

Q. // outcome(item) with item = Cc1ccc(N2C(=O)C3c4[nH]c5ccccc5c4C4CCC(C(C)(C)C)CC4C3C2=O)cc1 (stereo not drawn)
A. inactive

Q. // outcome(item) with item = "ClCCCN1CCN(CCCl)CC1"
A. inactive

Q. // outcome(item) with item = CCCCCCCCCCCCCCCCCCOP(=O)([O-])OCC[N+](C)(C)C [OCTADECYLPHOSPHONOCHOLINE]
A. active

Q. // outcome(item) with item = CCOC(=O)C1(NC(=O)OC(C)(C)C)CCc2[nH]oc(=O)c2C1 (stereo not drawn)
A. inactive

* * *

Tested on: SK-OV-3
Test: NCI tumour cell line growth inhibition, 48 h
The source made the active and inactive calls. Cut-off read from the data, not from the text of the source: active = GI50 up to about 1.1 µM and inactive = higher.
readoutKind: GI50

Known GI50 results, listed for orientation:
NS(=O)(=O)c1nc(S(=O)(=O)O)c2[nH]cnc2n1    > 100 µM (inactive)
O=C1CCSc2nc(-c3ccc4c(c3)OCO4)nn21    > 10 µM (inactive)
CC1=NN(c2cccc(Cl)c2)C2(C1=Cc1ccc(O)cc1)C(Cl)C(=O)N2c1nc2ccccc2s1 (stereo not given)    22.8 µM (inactive)
O=C(CP(=O)(c1ccccc1)c1ccccc1)c1cccc(C(=O)CP(=O)(c2ccccc2)c2ccccc2)c1    23.3 µM (inactive)

Lab note: molecule "COC(=O)CCC(=O)c1ccc2c(c1)CCC2" tested on SK-OV-3; recorded GI50 was > 100 µM (inactive)

* * *

Tested on: SR
Assay: NCI tumour cell line growth inhibition, 48 h
Calls of active or inactive are those of the source. Rule as the data show it: active = GI50 up to about 1.1 µM and inactive = higher.
Choose one outcome from this list and give only that: active, inactive

Recorded results for 2 molecules are shown here.
Cc1ccc(N2C(=O)C3c4[nH]c5ccccc5c4C4CCC(C(C)(C)C)CC4C3C2=O)cc1 (stereo unspecified)    inactive
O=c1nc(N2CCCCC2)sc2[nH]c3ccccc3c12    inactive

Q. // outcome(item) with item = O=C(NCCC1CNc2ccccc21)OCc1ccccc1 (stereo unspecified)
A. inactive

Q. // outcome(item) with item = "COc1ccc(/C=C2\CN(C)C/C(=C\c3ccc(OC)cc3)C2=O)cc1"
A. inactive

Q. // outcome(item) with item = "COc1cc2ncnc(Nc3cccc(Cl)c3)c2cc1OC"
A. inactive

Q. // outcome(item) with item = C=C(C)C(O)CCC1(C)C=Cc2c(c(C)cc3c2[nH]c2ccccc23)O1 (stereo unspecified)
A. inactive

Q. // outcome(item) with item = COc1cc(C(=O)O[C@H]2CCC3CCC2N3C)cc(OC)c1OC (stereo partly specified)
A. inactive

Q. // outcome(item) with item = O=c1[nH]c2ccccc2n1C1CCN(CCCC(c2ccc(F)cc2)c2ccc(F)cc2)CC1 [PIMOZIDE]
A. inactive

Q. // outcome(item) with item = "O=C(O)c1ccccc1CC1Cc2cc3c(cc2C1)CCC3"
A. inactive

Q. // outcome(item) with item = "[O-]c1c2c(nn1-c1ccccc1)c1ccccc1c[n+]2Cc1ccccc1"
A. inactive

Q. // outcome(item) with item = "CC(=O)O[C@H]1C(=O)[C@@]2(C)[C@H]([C@H](OC(=O)c3ccoc3)[C@]3(O)C[C@H](OC(=O)[C@H](O)[C@@H](NC(=O)c4ccccc4)c4ccccc4)C(C)=C1C3(C)C)[C@]1(OC(C)=O)CO[C@@H]1C[C@@H]2O"
A. active

Q. // outcome(item) with item = "COc1cc2oc(=O)cc(C)c2c(OC)c1O"
A. inactive

* * *

Test system: COLO 205
Experiment: NCI tumour cell line growth inhibition, 48 h
Calls of active or inactive are those of the source. Rule as the data show it: active = GI50 up to about 1.1 µM and inactive = higher.
Choose one outcome from this list and give only that: label 1 = active, label 0 = inactive

Q. // outcome(item) with item = "O=c1nc(N2CCCCC2)sc2[nH]c3ccccc3c12"
A. label 0

Q. // outcome(item) with item = "O=S(=O)(N=S(c1ccccc1)c1ccccc1)c1ccccc1"
A. label 0

Q. // outcome(item) with item = CCC(C)N1CN(c2ccccc2)C2(CCN(CCCC(=O)c3ccc(F)cc3)CC2)C1=O (stereo not given)
A. label 1

Q. // outcome(item) with item = COC1[C@H](NC(=O)OC(C)(C)C)C(=O)N1Cc1ccccc1 (stereo not given in full)
A. label 0

Q. // outcome(item) with item = "CC(=O)/C(=C\Nc1c(C)n(C)n(C)c1=O)C(=O)c1ccccc1"
A. label 0

Q. // outcome(item) with item = "N#Cc1c(N)[nH]c2ccc(Sc3ccccc3)cc12"
A. label 1

Q. // outcome(item) with item = "CC(/C=N/N=C1NCCCCN1)=N\N=C1NCCCCN1"
A. label 0

Q. // outcome(item) with item = "O=C1C=C(O)C(=Cc2c(O)cc(O)cc2O)C(O)=C1"
A. label 0

* * *

Test system: SF-295
Assay: NCI tumour cell line growth inhibition, 48 h
The source made the active and inactive calls. No stated cut-off is given here; in the data, active = GI50 up to about 1.1 µM and inactive = higher.
Choose one outcome from this list and give only that: 1.0 for active, 0.0 for inactive

COc1ccc(CNc2nc3ccc(C(F)(F)F)cc3nc2-c2ccccc2)cc1OC    0.0

Turning now to a further molecule:
Q. // outcome(item) with item = "C#Cc1ccccc1N1C(=O)C=CC1=O"
A. 0.0

* * *

Test system: NCI/ADR-RES
Test: NCI tumour cell line growth inhibition, 48 h
Activity calls are given as the source filed them. Cut-off read from the data, not from the text of the source: active = GI50 up to about 1.1 µM and inactive = higher.
Choose one outcome from this list and give only that: yes (1) (active), no (0) (inactive)

Recorded results for 4 compounds are shown here.
O=C(O)/C=C/C=C/c1ccc2c(c1)OCO2    no (0)
C=CCCC1(CC(Sc2ccccc2)P(=O)(c2ccccc2)c2ccccc2)OCCO1 (configuration not stated)    no (0)
O=[N+]([O-])c1ccc2c3c1[C@H]1O[C@H]1c1cccc(c1-3)[C@@H]1O[C@H]21    no (0)
COC(=O)C1=C(O)C(C(=O)OC)[C@]2(O)[C@H](C(=O)OC)[C@H]1C[C@@H](c1ccc([N+](=O)[O-])cc1)[C@H]2C(=O)OC (some centres not stated)    no (0)

Q. // outcome(item) with item = "O=c1c2cc([N+](=O)[O-])ccc2n2n1Cc1ccccc1CC2"
A. no (0)

Q. // outcome(item) with item = CC1=NNC(=O)[C@H]2[C@H]1CCC1[C@@H]2CC[C@]2(C)[C@@H](O)CC[C@@H]12 (some centres not stated)
A. no (0)

Q. // outcome(item) with item = "COC1=Nc2ccccc2S(=O)(=O)C=C1"
A. no (0)

Q. // outcome(item) with item = "O=C1C(c2ccccc2)=[N+]([O-])c2ccccc21"
A. no (0)

Q. // outcome(item) with item = CC(C(N)=O)N(C)C(=O)c1cnc2ccccc2c1 (configuration not stated)
A. no (0)

Q. // outcome(item) with item = "COc1cc2ncnc(Nc3cccc(Cl)c3)c2cc1OC"
A. no (0)

Q. // outcome(item) with item = "CNC(=O)OCc1c(COC(=O)NC)c(C)n(-c2ccc(Br)cc2)c1C"
A. no (0)

Q. // outcome(item) with item = COC(c1ccsc1)C(C#N)(C#N)/N=C/c1ccsc1 (configuration not stated)
A. no (0)

* * *

# Lookup of reported GI50 keyed by entry
Test system: TK-10
Assay: NCI tumour cell line growth inhibition, 48 h
Active and inactive are the calls of the source. Cut-off read from the data, not from the text of the source: active = GI50 up to about 1.1 µM and inactive = higher.

Entry C#CCNC(=O)NCCCC(NC(C)=O)C(=O)NCc1ccccc1 (stereo unspecified) ; GI50 = > 100 µM (inactive)

Entry "COc1ccc(C(=O)O/N=C2\CCCC\C2=C/c2ccccc2)cc1" ; GI50 = 68.7 µM (inactive)

Entry CCOC(=O)C1N(S(=O)(=O)c2ccc(C)cc2)CCC12c1ccccc1NC2c1ccc(OC)c(OC)c1 (stereo unspecified) ; GI50 = > 100 µM (inactive)

Entry "Cc1nc2cc(N)c(F)cc2[nH]1" ; GI50 = > 100 µM (inactive)

Entry "COC(=O)c1nn(-c2ccccc2)c(=O)cc1N=[N+]=[N-]" ; GI50 = > 100 µM (inactive)

Entry "Cn1c(=O)c2c(nc3sc4ccccc4c(=O)n32)n(C)c1=O" ; GI50 = > 100 µM (inactive)
